// reported log10(IC50) for each item listed
# Test system: Aβ42
# protocol: Screening for γ-secretase-modulating activity, Method 2: Aβ42 Alphalisa in supernatant of SKNBE2 cells carrying APP 695 wild type (Table 12c)
# Assay type: cell-based
# details: Method 2, Table 12c, incubated overnight
Annotation: log10 of IC50, nM basis.

# annotated cases, reported log10(IC50) shown
molecule | log10(IC50)
COc1cc(Nc2cccn3cc(C(C)(C)O)nc23)ccc1-n1cnc(C)c1 [Compound 121] | 3.12
Cc1cn(-c2ccc(Nc3ccnn4cc(-c5cc(F)ccc5C)nc34)cc2F)cn1 [Compound 166] | 2.40
COc1nc(Nc2cccn3c(C)c(-c4ccccc4Cl)nc23)ccc1-n1cnc(C)c1 [Compound 139] | 0.70
COc1cc(Nc2cccn3cc(CC(F)(F)F)nc23)ccc1-n1cnc(C)c1 [Compound 109] | 1.78
COCc1c(-c2ccccc2)nc2c(Nc3ccc(-n4cnc(C)c4)c(F)c3)cccn12 [Compound 104] | 1.46

Notebook: Cc1cn(-c2ccc(Nc3cc(F)cn4cc(-c5ccc(F)cc5C)nc34)cc2F)cn1 [Compound 148] , log10(IC50) read as 1.63
